TGT: HCV polymerase (NS5B570n-Con1) (Hepatitis C virus genotype 1b, UniProt Q9WMX2)
Construct: contains a 21 amino acid deletion at the C-terminus relative to the full-length HCV polymerase; 6-histidine (His6) (N)
PROTOCOL_NOTES: HCV NS5B RNA polymerase activity
Method: The enzymatic activity of HCV polymerase (NS5B570n-Con1) was measured as the incorporation of radiolabeled nucleotide monophosphates into acid insoluble RNA products. […] The amount of light emitted from the scintillant was converted to counts per minute (CPM) on a Topcount® plate reader (Perkin-Elmer, Energy Range: Low, Efficiency Mode: Normal, Count Time: 1 min, Background Subtract: none, Cross talk reduction: Off). Data was analyzed in Excel® (Microsoft) and ActivityBase® (Idbs®). […]
I'd appreciate it if you could supply pIC50 values for the items below.
One number for each entry, as −log10 of the molar value.

Past entries and their recorded results:
Exercise: Requested read-out: pIC50. Entry: "CC(C)(C)c1cc(C(=O)N[C@H]2CC[C@H](NS(C)(=O)=O)CC2)c(C#N)c(-c2ccc[nH]c2=O)n1"
Solution: 7.38

Exercise: Requested read-out: pIC50. Entry: "COC(=O)c1cc(C(C)(C)C)nc(-c2ccc[nH]c2=O)c1C#N"
Solution: 5.25

Exercise: Requested read-out: pIC50. Entry: "CC(C)(C)c1nc(/C=C/c2ccc(NS(C)(=O)=O)cc2)cc(-c2ccc[nH]c2=O)n1"
Solution: 8.00

# per-item lookup of pIC50; items listed below
1. CC(C)(C)c1cc(CCc2ccc(NS(C)(=O)=O)cc2)c(C#N)c(-c2ccc[nH]c2=O)n1
2. CC(C)(C)c1cc(/C=C/c2ccc(NS(C)(=O)=O)cc2)c(O)c(-c2ccc[nH]c2=O)n1

Solution:
8.40
6.75

# per-item lookup of pIC50; items listed below
1. CC(C)(C)c1cc(/C=C/c2ccc(NS(C)(=O)=O)cc2)cc(-c2ccc[nH]c2=O)n1
2. CC(C)(C)c1cc(CCc2ccc(NS(C)(=O)=O)cc2)c(O)c(-c2ccc[nH]c2=O)n1

Solution:
[8.40, 7.57]

* * *

RESULT_TYPE: melting point

Past entries and their recorded results:
Exercise: Requested read-out: melting point. Entry: "COC(=O)c1cc(C(C)(C)C)nc(-c2ccc[nH]c2=O)c1C#N"
Solution: 228 to 230 °C

Exercise: Requested read-out: melting point. Entry: "CC(C)(C)c1cc(C(=O)N[C@H]2CC[C@H](NS(C)(=O)=O)CC2)c(C#N)c(-c2ccc[nH]c2=O)n1"
Solution: 208 to 210 °C

# per-item lookup of melting point; items listed below
1. CC(C)(C)c1cc(/C=C/c2ccc(NS(C)(=O)=O)cc2)cc(-c2ccc[nH]c2=O)n1
2. CC(C)(C)c1cc(/C=C/c2ccc(NS(C)(=O)=O)cc2)c(O)c(-c2ccc[nH]c2=O)n1
3. CC(C)(C)c1cc(CCc2ccc(NS(C)(=O)=O)cc2)c(O)c(-c2ccc[nH]c2=O)n1
4. CC(C)(C)c1nc(/C=C/c2ccc(NS(C)(=O)=O)cc2)cc(-c2ccc[nH]c2=O)n1

Solution:
1. 258 to 260 °C
2. 178 to 180 °C
3. 123 to 125 °C
4. 271 to 273 °C
